target: T1, FGFR2 juxtamembrane region (407-462), labelled with Atto 488 (UniProt P21802-3 407-462, Atto 488 dye label)
T1 construct: FGFR2 (IIIb isoform) juxtamembrane region, residues 407-462; numbers count on: FGFR2IIIb (C1 isoform, 822 residues); also called JM; 407Juxtamembrane region462; source: synthetic peptide, bought: Genscript
T1 sequence (looked up): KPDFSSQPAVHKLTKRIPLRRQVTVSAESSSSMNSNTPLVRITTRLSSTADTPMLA
test-method-notes: MST; JM labelled with Atto488 (100 nM), 2-fold serial dilutions of CT peptides, 25 °C; 20 mM HEPES, 150 mM NaCl, 1 mM TCEP, 0.01% Tween 20, pH 7.5
reported-conditions: both partners purified
quantity-measured: Kd (µM)
Write the answer as a number in µM, unit excluded.

binder	units	Kd
PDPMPYEPCLPQYPH (numbers count on: FGFR2IIIb (C1 isoform, 822 residues); source: synthetic peptide, bought: Genscript) [CT peptide 801-815]	µM	63.6

Next, consider the following binder.
Request: # input binder: PCLPQYPH (FGFR2 (IIIb, C1 isoform) C-terminal tail, residues 808-815; numbers count on: FGFR2IIIb (C1 isoform, 822 residues); also called CT^808-815; source: synthetic peptide, bought: Genscript) [CT peptide 808-815] ; wanted: its Kd
Result: 56.6
